B1: Hairpin Ribozyme (parent)
chain: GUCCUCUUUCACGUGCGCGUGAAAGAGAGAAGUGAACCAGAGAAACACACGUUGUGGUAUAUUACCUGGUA

- Variants of: B1
- Experiment: self-cleavage, relative activity (ratio to wild type); higher = more cleavage; co-transcriptional
Categorized via self-cleavage: low = under 0.1, moderate = from 0.1 up to 0.2, high = 0.2 and over

{"Mutation annotation": "G29A U33C", "Discrete label": "low"}
{"Mutation annotation": "A28U A47G", "Discrete label": "low"}
{"Mutation annotation": "C37G C50G", "Discrete label": "low"}
{"Mutation annotation": "G32C G51C", "Discrete label": "low"}
{"Mutation annotation": "A26G A44C", "Discrete label": "low"}
{"Mutation annotation": "G19A U70C", "Discrete label": "high"}
{"Mutation annotation": "C3G U14G", "Discrete label": "moderate"}
{"Mutation annotation": "G19A G69C", "Discrete label": "moderate"}
{"Mutation annotation": "U52C C65U", "Discrete label": "high"}
{"Mutation annotation": "A64G U67A", "Discrete label": "low"}
{"Mutation annotation": "C50G C65U", "Discrete label": "low"}
{"Mutation annotation": "C4A G34A", "Discrete label": "high"}
{"Mutation annotation": "U20G A59G", "Discrete label": "moderate"}
{"Mutation annotation": "G15A C65A", "Discrete label": "high"}
{"Mutation annotation": "U14A U58G", "Discrete label": "high"}
{"Mutation annotation": "G25A U60G", "Discrete label": "high"}
{"Mutation annotation": "G32C A47G", "Discrete label": "low"}
{"Mutation annotation": "G27A U55A", "Discrete label": "moderate"}
{"Mutation annotation": "C4U U55C", "Discrete label": "low"}
{"Mutation annotation": "A35G U67C", "Discrete label": "low"}
{"Mutation annotation": "G57C A59C", "Discrete label": "moderate"}
{"Mutation annotation": "A36G C37G", "Discrete label": "high"}
{"Mutation annotation": "G42A U55A", "Discrete label": "moderate"}
{"Mutation annotation": "A44U G68U", "Discrete label": "moderate"}
{"Mutation annotation": "U9G C12U", "Discrete label": "high"}
{"Mutation annotation": "U33G A59U", "Discrete label": "low"}
{"Mutation annotation": "G19C G42A", "Discrete label": "moderate"}
{"Mutation annotation": "A47G C65U", "Discrete label": "moderate"}
{"Mutation annotation": "A11G C48U", "Discrete label": "moderate"}
{"Mutation annotation": "A24U A59U", "Discrete label": "moderate"}
{"Mutation annotation": "G13A A71U", "Discrete label": "high"}
{"Mutation annotation": "G32U A47U", "Discrete label": "moderate"}
{"Mutation annotation": "A36U C46A", "Discrete label": "low"}
{"Mutation annotation": "C50U U52A", "Discrete label": "high"}
{"Mutation annotation": "G17U C66G", "Discrete label": "moderate"}
{"Mutation annotation": "A31U G56A", "Discrete label": "low"}
{"Mutation annotation": "U9C A45C", "Discrete label": "moderate"}
{"Mutation annotation": "U5A C48A", "Discrete label": "low"}
{"Mutation annotation": "G21U C46A", "Discrete label": "low"}
{"Mutation annotation": "G15U U63C", "Discrete label": "moderate"}
{"Mutation annotation": "A30C C65U", "Discrete label": "moderate"}
{"Mutation annotation": "C37A G56A", "Discrete label": "moderate"}
{"Mutation annotation": "G32C G57C", "Discrete label": "moderate"}
{"Mutation annotation": "C6A G21U", "Discrete label": "high"}
